- Test system: M14 melanoma
- measurement_description: NCI-60 one-dose screen, 48 h (100 = growth as untreated, 0 = no growth, -100 = all killed)
- assay_context: 10 µM unless noted
Compounds without any hit were thinned out: in the full panel of roughly 83,000, 20% have a hit.
Hi! Just check whether growth is below 50%. Below gives yes (1), equal or above gives no (0).

Illustrative cases are given below, each with its answer.
compound | group_label
COc1ccc(CN2c3ccccc3Sc3ccccc32)c(F)c1 | yes (1)
OC(c1ccccc1)C(NC(Cc1ccccc1)c1ccccc1)c1ccccc1 (stereo not given) | no (0)
CCOC(=O)C1=C(N)Oc2c(sc3c(CC)cccc23)C1c1ccc(F)cc1 (stereo not given) | yes (1)
Cc1ccc(C(=O)NN2C(=O)CSC2c2cccc([N+](=O)[O-])c2)cn1 (stereo not given) | no (0)
Cc1cc2nc3cc(C)c(N)cc3[n+](-c3ccccc3)c2cc1N | no (0)

Incoming: Dear colleague, could you confirm whether growth of COc1cccc(-c2nc(-c3ccc(NC(=O)OC(C)C)cc3)[nH]c2-c2ccnc(Br)c2)c1 falls below 50%? Thanks.
Outgoing: yes (1)

Incoming: Dear colleague, could you confirm whether growth of COc1ccc(S(=O)(=O)n2cc(C3OC(c4cc(OC)c(OC)c(OC)c4)=NN3C(C)=O)c3ccccc32)cc1OC (stereo not given) falls below 50%? Thanks.
Outgoing: no (0)

Incoming: Dear colleague, could you confirm whether growth of Cc1ccc(/C=C2\Oc3ccc(O)c(O)c3C2=O)cc1 falls below 50%? Thanks.
Outgoing: no (0)
